# Test system: MS2 coat protein
# ASSAY METHOD TEXT: apparent KD of MS2 coat protein; higher = weaker reporter binding
# MEASUREMENT PARAMETERS: Eterna round: R107; input ligand: theophylline 20 uM
Please use fulfilled whenever apparent KD of MS2 coat protein is not below 200 nM, and not fulfilled whenever it is.

PRIMARY SEQUENCE	ASSIGNED CATEGORY
AUAAAUGGGUUAAUUAGUUUUAGGUCCAGUCGAGGACCGGUACGGCCGCCACUCGUCCCAAGUUACAUGAGGAUCACCCAUGUUA [JR_ExcTryptoA_Sub014]	not fulfilled
AUUAUCAUGGUCAUAUAUAUAUCUUCAGAUACCAGACUAUAUUAAGUCCCUUGGCAGCUGUUACAUGAGGAUCACCCAUGUUAUA [JR_ExcTheophyA_Sub014]	not fulfilled
ACCUGCGUUUGUUUCUUUCUGACGCAGGUUCGAGGACCGGUACGGCCGCCACUCGGACAUGAGGAUCACCCAUGUUUGACAUGGG [#02 Exclusion Tryptophan A]	fulfilled
GCUAGGUCAUCGGCCGCCACUAACGAUGGCUCCAACAUGAGGAUCACCCAUGUGCCACAUGCGCAUAGGACCGGGAUGACCUAGC [SSTB NP+V+V2 #3]	not fulfilled

---

# Tested on: MS2 coat protein
# ASSAY METHOD TEXT: apparent KD of MS2 coat protein, switch ON state; designed switch direction (-1 OFF switch, 1 ON switch): -1; higher = weaker reporter binding
# MEASUREMENT PARAMETERS: FMN input: 0 or 200 uM; Eterna round: R93 (includes R88 designs)
PROPERTY LABEL: apparent KD of MS2 coat protein (nM)

PRIMARY SEQUENCE	UNITS	READOUT NUMBER
UAAAAACAUGAGGAUCACCCAUGUCAGGAUAUGUGCUCAGUGAAAAACUGAGUAACAAGCAGAAGGGACAAUAA [JR_Exc001_Sub202]	nM	23.6
AAAUAGUUAGGAUAUACAUGAGGAUCACCCAUGUGGACUGAUGUCGCGUGAUUCAGUGGUAGAAGGGACUCAAA [EX2 Malc#36]	nM	47.3
AUAAUACAUGAGGAUCACCCAUGUCAGGAUAUGCUAAAAUUAAAAUUAAAUCAAAAAUGUAGAAGGGACUAAAU [Exclusion Z3]	nM	49.8
ACAGCUGAAGGAUAUACUUGGAAAAAAAAAAAAAAAAAAAAACAUGAGGAUCACCCAUGUAGAAGGUCAGCUGA [Brourd - Exclusion 2 - Sub 2]	nM	50.3
AGCUAGUGAGGAUAUACAAGAAUAUAAACGAACAUAAAGGGACAUGAGGAUCACCCAUGUAGAAGGCACUAGCA [Diamond 73]	nM	42.6
AAAAAACAUGAGGAUCACCCAUGUAAGGAUAUCUAAAAUAAAAGAAAAAUAAAGAAAAGGAGAAGGUACAAGGA [JL wbt mod 25]	nM	13.8
UAUACGUGAGGAUAUGCGAAUAACACGUUAGACAAAUAGACGCAGAAGGCACAUGAGGAUCACCCAUGUGAACC [JR_Exc004_Sub316]	nM	18.1
AAAUAGUUAGGAUAUACAUGAGGAUCACCCAUGUGGACUUAUGGAGAAUAGUCUAAUGGUAGAAGGGACUAAAA [EX2 Malc#24]	nM	69.8
AAGAGUAGAGGAUAUACAUGAGGAUCACCCAUGUAAUCCGGAUAAGGAAGCAUGUCGUGUAGAAGGCUGCAUGA [MOD 3 of Nando (MS2 Riboswitches- Exclusion 3)]	nM	15.5
AAAAAACAUGAGGAUCACCCAUGUUAGGAUAUUCCUAAAAAAAAAAAAAAAAAAAAUGGAAGAAGGGACAAAAA [excalibur 9]	nM	21.2
AACUGACAUGAGGAUCACCCAUGUCAGGAUAUGAUUUGACGAAAAAAAAUAAGUCAUAUCAGAAGGGACAUGGA [Design 84: Sub-opt WB]	nM	26
AAAAAACAUGAGGAUCACCCAUGUAAGGAUAUCGGAAAAGGAAAAAAAAAAAAGAAGACGAGAAGGUACACCAA	nM	25.9
GGUUGGCGAGGAUAUACAUGAGGAUCACCCAUGUGAGUGAAAAAAGUGAGAAAGAAAAGUAGAAGGCGCUGACG [salish99-ex3-47]	nM	161
AGCUAGUGAGGAUAUACGAACAUGUCAAAAGACGUGAAGGGACAUGAGGAUCACCCAUGUAGAAGGCGCUAGCA [JL 74% mod]	nM	53.4
AAAAUGUCAGGAUAUUCGGAUAGGAAAACGAAAACCUAUCCGAAGAAGGGACAUGAGGAUCACCCAUGUAAAAA [Starry Exclusion 4.2 (cataway round 1 mod)]	nM	81.4
AAAAAGGGAGGAUAUACAUGAGGAUCACCCAUGUAUCAGACGAAAAAGAGUCUGAAAUGUAGAAGGCCCAAAAA [65%, Moding Exclusion3-cac2, 2]	nM	20.7
AACAUGUCAGGAUAUGUAGCAAAAAGUGAUCCAAAAAAGCUACAGAAGGGACAUGAGGAUCACCCAUGUAAAAA [Ex4: 933]	nM	124
AACAGGACAGGAUAUACAUGAGGAUCACCCAUGUGAAGAUUAAGAAGAAACCCACAAAGUAGAAGGGUCCUGGA [Ruby 93]	nM	25
AGUGAGUGAGGAUAUUACUGAAGAAUAAAAGAAAUAACGAGUAAGAAGGCACAUGAGGAUCACCCAUGUACACA [May 62]	nM	25.5

---

# System: MS2 coat protein
# ASSAY METHOD TEXT: apparent KD of MS2 coat protein; designed switch direction (-1 OFF switch, 1 ON switch): -1; higher = weaker reporter binding
# MEASUREMENT PARAMETERS: Eterna round: R95; input ligand: FMN 200 uM

PRIMARY SEQUENCE	ASSAY SYSTEM	apparent KD of MS2 coat protein (nM)
CGUGACUCAGGAUAUCGAUUAUAUCACAUGAGGAUCACCCAUGUCCAGCGAAAGCUGGAGUGAGAAGGGAGUCACG [Fiskers Ex 5 - 49] (puzzle: Exclusion 5)	MS2 coat protein	47.6
AUACAACAUGAGGAUCACCCAUGUGAGGAUAUGCGAUAUAUCAUCAUCAUAAUCAUAAGCAGAAGGCACAACAU [Another One] (puzzle: Exclusion 1)	MS2 coat protein	35.7
ACGUGAUACCUGUCGGUGGACAUGAGGAUCACCCAUGUAAGCUUUUUGCUCGUCUUAUAACCCGGUGACAGACCUUC [Racequbebe] (puzzle: Sensor v3, turn-off variant 1)	MS2 coat protein	97.7
AAGUACCGUCACGAUAGUGAUGGUACAACAAGUGGUGAAACAUGAGGAUCACCCAUGUCCUCAAUUGCUCGUCUUAU [Sensor 3 - 85] (puzzle: Sensor v3, turn-off variant 2)	MS2 coat protein	1030
CUGUAACGAGCGUGAGCCUACAUGAGGAUCACCCAUGUGCUCGUCUUAUAACGUACUGUCACGUUAGUGAUAGUGCG [Sensor v3, turn-off variant 1 (MOD of Eli's v1-13 v.3)] (puzzle: Sensor v3, turn-off variant 1)	MS2 coat protein	115
UUUUUCAGGCCAGAUCCUCACAUGAGGAUCACCCAUGUGCUCGUCUGUUUUCGCUCUUUCUUUUUUUUGGUUGUGCU [Level Boss var2-18] (puzzle: Sensor v3, turn-off variant 1)	MS2 coat protein	174
GAAGAAGAGAGAAUAGAAAACAUGAGGAUCACCCAUGUUAAGAGAUGAGGGUGUAAUAGGAUUUUUGCUCGUCUUAU (puzzle: Sensor v3, turn-off variant 1)	MS2 coat protein	38.3
CCGGAAUAGCAGGAUAUAGGAGUCGAUAGACACCUAGAAGGGUUGACAUGAGGAUCACCCAUGUGUCCUACCGG [Fiskers Ex 6 - 82] (puzzle: Exclusion 6)	MS2 coat protein	322
GACCGGACGUGGUCUGGUAACAUGAGGAUCACCCAUGUUGGUCUAAGAACAUGCCUUUUGCACGCUCGUCUUAUAUU [JR_SV3TOV1_Sub062] (puzzle: Sensor v3, turn-off variant 1)	MS2 coat protein	66.2
GAGAAAUUAUAGGAUAUCGAAAGGAUAAUUUAACGAGAAGGAUGAACAUGAGGAUCACCCAUGUGGUAUCAUGG [JL-ex6-3.11] (puzzle: Exclusion 6)	MS2 coat protein	346
CUGGUCCGAGGAUAUAUGAUGUGAUACAUGAGGAUCACCCAUGUUAUAUUAUGGAUGUAAAUAGAAGGCGGACUAG [Mat - Exclusion 5 - JL mod - D71] (puzzle: Exclusion 5)	MS2 coat protein	71.2
UUGACCCACGUCAGGAUAUCAAGAAAAGAGGCUCUUGAGAAGGGACAUGAGGAUCACCCAUGUAAGAAAUAAAU [Qumabibe] (puzzle: Brourd's mod of Exclusion 4)	MS2 coat protein	101
GGAAGAAUGAGUAGUCCUCAUUGAAGAGAACAGUAAGAAACAUGAGGAUCACCCAUGUAAGAACAAGCUUUUGCUCA [JR_Sv3TOV2_Sub002] (puzzle: Sensor v3, turn-off variant 2)	MS2 coat protein	168
CUUAGACAUGAGGAUCACCCAUGUGAGGAUAUGAAAUUAAUUAAUUAUGAAGUAUGAAUCAGAAGGCACAUAUG [Mat - Mod of Hyphema D35] (puzzle: Exclusion 1)	MS2 coat protein	71.7
UAUUAAUGCAAGGAUAUGCUUUUAAUUUUUUUUGCAGAAGGUGCAACAUGAGGAUCACCCAUGUUUGAGGGUAU [JR_E6_Sub030] (puzzle: Exclusion 6)	MS2 coat protein	68.4
GAUAAGGUAGGAUAUACGAAGAAAGAGGGUAGUAAUAAUACACAUGAGGAUCACCCAUGUAGAAGGACCAAGAG [Mat - Exclusion 2 - Mod of my Tesla design - D44] (puzzle: Exclusion 2)	MS2 coat protein	38.7
GGUUGGCGAGGAUAUACAUGAGGAUCACCCAUGUGAGAGAAAAAAGUGAGGAAGAAAAGUAGAAGGCGCUGACC [salish99_ex3_r3_048] (puzzle: Exclusion 3)	MS2 coat protein	256
CUGGUCCGAGGAUAUAUUAUGUGAUACAUGAGGAUCACCCAUGUUAUAUGAUGGAUGUAAAUAGAAGGCGGACUAG [JL-ex5-3.15] (puzzle: Exclusion 5)	MS2 coat protein	48
GAAAAGGUAGGAUAUACAAAAAAAAAGGGUAGAAAAAAAACACAUGAGGAUCACCCAUGUAGAAGGACCAAAAG [salish99_ex2_r3_057] (puzzle: Exclusion 2)	MS2 coat protein	83.7
GAUUGACAUGAGGAUCACCCAUGUGAGGAUAUCGGCUGGACCGUGUUGGCUUCCGUCUCGAGAAGGCGCAUAGG [Exclusion 1 V43] (puzzle: Exclusion 1)	MS2 coat protein	137

Provenance of the data: the supplement of paper PMC9170038
